Experiment: Toxicity liver stage against HepG2, at 10uM
Type: cell-based
Parameters: test concentration 10 uM, cell line HepG2-A16-CD81EGFP
Settings: human, HepG2-A16-CD81EGFP cells; read-out: INHIBITION
Here, each record is paired with measured cytotoxicity at 10 µM data.
Just the number in %, nothing appended.

Guide cases for cytotoxicity at 10 µM, answers given:
compound: CCCc1nc(CN(CC)C(=O)c2ccc(S(C)(=O)=O)cc2)no1
cytotoxicity at 10 µM [%]: -5.03
--
compound: COC(=O)[C@@H]1Cc2ncn(C)c2CN1S(=O)(=O)c1ccc(Cl)cc1
cytotoxicity at 10 µM [%]: 4.67
--
compound: O=C(NCc1ccco1)[C@@]12CCO[C@@H]1CCN(C1CCC1)C2
cytotoxicity at 10 µM [%]: 12.3
--
compound: Cc1nc(C(=O)N2CCN(c3ncccn3)[C@@H]3CS(=O)(=O)C[C@@H]32)cs1
cytotoxicity at 10 µM [%]: 6.12
--
compound: Cn1ccnc1CN(CCO)C(=O)c1cc2ccccc2o1
cytotoxicity at 10 µM [%]: 3.42
--
compound: Cc1cc(C(=O)N2CCn3cc(CN4CCOCC4)nc3C2)no1
cytotoxicity at 10 µM [%]: -75.7

Fill in cytotoxicity at 10 µM for record Cc1ncc(CN(C)C(=O)Nc2cccc(N3CCOC3=O)c2)s1
5.31

Supply measured cytotoxicity at 10 µM of CN(Cc1nnc2n1CCC2)C(=O)c1ccc(=O)n(C)n1 in your reply.
-8.16

Give reported cytotoxicity at 10 µM value for C1=CCN(c2nc(CC3CC3)nc3c2CCN(C2CCOCC2)CC3)C1
0.0776

State its cytotoxicity at 10 µM: O=C(Nc1ccccc1Oc1cccc(F)c1)NC1CCS(=O)(=O)C1 (stereo not given)
-6.07

* * *

Test: Toxicity liver stage against HepG2, at 10uM
Type: cell-based
Parameters: test concentration 10 uM, cell line HepG2-A16-CD81EGFP
Details: human, HepG2-A16-CD81EGFP cells; read-out: INHIBITION
Quick list: cytotoxicity at 10 µM per entry.
Record the value in %, omitting the unit from your answer.

Fill in reported cytotoxicity at 10 µM for this entry: CN(C)CC(=O)N1Cc2nnn(C)c2C(COCc2ccccn2)C1 (stereo not drawn)
9.26

Please report cytotoxicity at 10 µM for the following compound: CC(=O)N1C[C@H]2CC[C@@H](C1)N(S(=O)(=O)c1ccccc1Cl)C2
-4

Fill in cytotoxicity at 10 µM for record CN(C)C(=O)CO[C@H]1CN(Cc2cccc(F)c2)[C@@H]2CCCO[C@H]12
-2.76

* * *

Listed next: entries and their corresponding cytotoxicity at 10 µM.
Experiment: Toxicity liver stage against HepG2, at 10uM
Type: cell-based
Design: test concentration 10 uM, cell line HepG2-A16-CD81EGFP
Settings: human, HepG2-A16-CD81EGFP cells; read-out: INHIBITION
Kindly answer with a numeric value in %, unit omitted.

Answered examples (5):
molecule: CC(C)c1nccn1-c1cccc(C2CCCN(C3CCCC3)C2)n1 (stereo not drawn)
cytotoxicity at 10 µM (%): 7.1
//
molecule: CC(C)=CCS(=O)(=O)Cc1nc(C(C)C)no1
cytotoxicity at 10 µM (%): 10.8
//
molecule: CC(C)=CCN1C[C@@H]2CC[C@H]1CN(C(=O)c1c[nH]c(=O)c(Cl)c1)C2
cytotoxicity at 10 µM (%): -14.5
//
molecule: COc1ccccc1CN1CC[C@H]2C[C@H](C(=O)N3CCCC3)O[C@H]2C1
cytotoxicity at 10 µM (%): -2.24
//
molecule: COc1ncccc1C(=O)N1CC[C@H]2C[C@H](c3noc(C)n3)O[C@@H]2C1
cytotoxicity at 10 µM (%): 5.31

Identify measured cytotoxicity at 10 µM associated with CCCN1CCCC(O)(c2nc(C)c(COc3ccccc3)s2)CC1 (stereo not drawn)
2.27

Quickly give me recorded cytotoxicity at 10 µM for NC(=O)C1CCN(C(=O)c2cccc(CN3CCOCC3)c2)CC1
-20

Retrieve cytotoxicity at 10 µM measured for Cc1csc([C@@H]2C[C@@H]3CCN(Cc4cnn(C)c4)C[C@H]3O2)n1 and print it.
-4.87

* * *

Assay: Toxicity liver stage against HepG2, at 10uM
Format: cell-based
Set-up: test concentration 10 uM, cell line HepG2-A16-CD81EGFP
Details: human, HepG2-A16-CD81EGFP cells; read-out: INHIBITION
measured-quantity: cytotoxicity at 10 µM (%)
Response body: numeric value in %, unit text excluded.

compound: COCCOc1ncccc1C(=O)Nc1ccc(-n2cncn2)c(F)c1
measured-quantity: cytotoxicity at 10 µM
unit-label: %
reported-measurement: -0.138
//
compound: O=C(c1ccc(F)cc1)N1C[C@@H]2CCN(c3cccnc3)C[C@@H]2C1
measured-quantity: cytotoxicity at 10 µM
unit-label: %
reported-measurement: -78.4
//
compound: Cc1ccc2c(c1)c(C)cc(=O)n2CC(=O)O
measured-quantity: cytotoxicity at 10 µM
unit-label: %
reported-measurement: 3.1
//
compound: CS(=O)(=O)c1ccc(CNC(=O)NCC2CCOC2)cc1 (centres undefined)
measured-quantity: cytotoxicity at 10 µM
unit-label: %
reported-measurement: -9.22
//
compound: C1CN(c2nc(C3CC3)ns2)CCS1
measured-quantity: cytotoxicity at 10 µM
unit-label: %
reported-measurement: -11.6
//
compound: COCC1CN(Cc2sccc2C)Cc2nnn(CC3CC3)c21 (centres undefined)
measured-quantity: cytotoxicity at 10 µM
unit-label: %
reported-measurement: 4.35
//
compound: O=C(O)c1ccccc1-c1ccc(Cn2c(=O)cc[nH]c2=O)cc1
measured-quantity: cytotoxicity at 10 µM
unit-label: %
reported-measurement: 5.64
//
compound: COc1ccc(Cc2ncc3c(n2)CN(C(=O)C(C)(C)OC)C3)cc1
measured-quantity: cytotoxicity at 10 µM
unit-label: %
reported-measurement: -1.24

# ---- query compound ----
Please list cytotoxicity at 10 µM recorded for the compound CCN(CC)CCNC(=O)c1cnc(C(C)(C)C)s1
-8.94

* * *

Test: Toxicity liver stage against HepG2, at 10uM
Assay type: cell-based
Set-up: test concentration 10 uM, cell line HepG2-A16-CD81EGFP
Settings: human, HepG2-A16-CD81EGFP cells; read-out: INHIBITION
measured-quantity: cytotoxicity at 10 µM (%)
// note: answer is a bare numeric in %

Worked examples, 5 molecules total:
molecule: Cn1cccc1C(=O)N1CCCCC12CC(=O)N(c1cccnc1)C2 (configuration not stated)
cytotoxicity at 10 µM / %: -1.91
--
molecule: CC(C)CCNc1c(C#N)c2c(c3nncn13)CN(C)CC2
cytotoxicity at 10 µM / %: 9.26
--
molecule: Cc1cccc(C(=O)N2CCn3cnc(COCC4CC4)c3C2)n1
cytotoxicity at 10 µM / %: 6.85
--
molecule: CC(C)c1nccn1CCC(=O)NCC(C)(O)c1ccco1 (configuration not stated)
cytotoxicity at 10 µM / %: 1.23
--
molecule: CCSCc1ccnc(NC(=O)C2CCCO2)c1 (configuration not stated)
cytotoxicity at 10 µM / %: 5.39

Give the value of cytotoxicity at 10 µM reported for the following: CC(C)c1nc(CN2CCCC2c2cnn(C)c2)cs1 (configuration not stated)
0.0791

Annotate the molecule Cc1oc(-c2ccco2)nc1CC(=O)NCC(C)(C)N(C)C with its measured cytotoxicity at 10 µM.
-13.9

Look up and state reported cytotoxicity at 10 µM for c1cncc(CN2CCC3(CCCN(c4nncs4)C3)C2)c1 (configuration not stated)
-144

For the molecule COCCS(=O)(=O)NC(C)c1ccccc1Cl (configuration not stated) , give its measured cytotoxicity at 10 µM value.
5.53

Identify measured cytotoxicity at 10 µM associated with Cc1nn(C)c2cnn(Cc3ccc(C(=O)NCC4CCCO4)o3)c12 (configuration not stated)
9.37

Give the reported value of cytotoxicity at 10 µM for this record: Cc1nc(CCNC(=O)NC2CCCN(c3ncccn3)C2)cs1 (configuration not stated)
-129

Please report cytotoxicity at 10 µM for the following molecule: Cc1cc(C(=O)NCC(c2ccccc2Cl)N2CCOCC2)on1 (configuration not stated)
2.62

Quote cytotoxicity at 10 µM reported for O=S(=O)(c1ccc(F)c(F)c1)N1CCCC(c2nccs2)C1 (configuration not stated) please.
-0.523

Kindly indicate its recorded cytotoxicity at 10 µM. Item: Cc1cc(C(=O)N2CCc3c(nc(-c4ccncc4)[nH]c3=O)C2)no1
-1.28

Specify measured cytotoxicity at 10 µM for Cc1cccc(CNc2nnc(C(C)C)o2)c1 .
12.2

Complete the entry with cytotoxicity at 10 µM for CC(=O)N1CCOC(c2c(C(=O)NC(C)(C)C)sc3ccccc23)C1 (configuration not stated)
8

* * *

As shown below, each of these compounds has a reported cytotoxicity at 10 µM value.
Assay: Toxicity liver stage against HepG2, at 10uM
Format: cell-based
Set-up: test concentration 10 uM, cell line HepG2-A16-CD81EGFP
Conditions: human, HepG2-A16-CD81EGFP cells; read-out: INHIBITION
Your answer should be a plain number; it is taken to be in %.

compound: N#Cc1ccc(OC2CCN(C(=O)Cc3cccs3)CC2)nc1
cytotoxicity at 10 µM, %: 1.96

compound: O=C(NCC1Cn2nnc(-c3ccsc3)c2CO1)N1CCCC1 (stereo not drawn)
cytotoxicity at 10 µM, %: -110

Tell me measured cytotoxicity at 10 µM for NC(=O)N1CCc2cc(C(=O)O)c(-c3ccsc3)nc2CC1 please.
18.3

Kindly indicate its recorded cytotoxicity at 10 µM. Item: Cc1cc2c(c(-c3c[nH]c(C)n3)c1)OC(CN)C2 (stereo not drawn)
4.24

Identify measured cytotoxicity at 10 µM corresponding to CS(=O)(=O)NC[C@@H]1OC[C@H]2CN(C(=O)c3cnccn3)CC[C@H]21
2.98

Return cytotoxicity at 10 µM (reported value) for this compound: Cc1cc(N(C)CCN(C)C2CCCC2)n2nc(C)cc2n1
-6.09

Identify measured cytotoxicity at 10 µM corresponding to CC(=O)c1ccc(-n2c(C)cn(CCS(C)(=O)=O)c2=O)cc1
11.5

Supply measured cytotoxicity at 10 µM of CS(=O)(=O)CCCNCc1c(Cl)cccc1N1CCCC1 in your reply.
1.18
